- Tested on: glycogen synthase kinase-3 (GSK3A per assay name; protocol says GSK3B)
- experiment notes: GSK3 binders on small-molecule microarrays, primary screen, biochemical, small-molecule microarray, 635 nm fluorescence, GSK3A (AID 1103); further: the record names both GSK3A and GSK3B
- condition description: small-molecule microarray binding, fluorescence 635 nm; higher = more signal
measured attribute: composite z-score
One number for each entry.

Guide cases for composite z-score, answers given:
- CN(C)CCCCNC(=O)[C@H]1C[C@H]2C(=O)N3CCC[C@H]3C(=O)N2[C@H]1c1ccc(O)cc1: -0.0328
- COCCOC(=O)N1C(=O)[C@@]2(c3cc(C#Cc4ccc(OC)cc4)ccc31)[C@H](C(=O)N1CCCCCCC1)[C@H]1C(=O)O[C@H](c3ccccc3)[C@H](c3ccccc3)N1[C@@H]2c1ccc(O)cc1: 1.15
- CCOC(=O)C[C@H]1[C@H](OC(=O)c2ccc(-c3ccccc3)cc2)[C@@H](NC(=O)c2ccc3ccccc3n2)c2cc(OCCCO)ccc2N1C(=O)c1ccccc1: 0.653
- COC(=O)[C@@]1(Cc2ccccc2)[C@H]2c3cc(C(=O)N4CCCC4)n(Cc4cc(F)cc5c4OCOC5)c3C[C@H]2CN1C(=O)c1ccccc1: 0.0232
- C[C@@H](OCc1ccccc1)C1NC(=O)[C@@]23C(=O)N[C@@H](Cc4ccccc4)C2[C@H](C)[C@@]2(C)O[C@H]2C3/C=C/C/C=C\CNC(=O)CNC1=O (stereo partly drawn): -0.764

Please state, for each entry, its recorded composite z-score.
1. COCCOC(=O)N1C(=O)[C@@]2(c3cc(C#CCC(C(=O)OC)C(=O)OC)ccc31)[C@H](c1ccc(OCCO)cc1)N1[C@H](c3ccccc3)[C@H](c3ccccc3)OC(=O)[C@H]1[C@@H]2C(=O)N1CCN(c2ncccn2)CC1
2. COCCOC(=O)N1C(=O)[C@@]2(c3cc(C#CC4(O)CCCCCC4)ccc31)[C@H](C(=O)N1CCCCCCC1)[C@H]1C(=O)O[C@H](c3ccccc3)[C@H](c3ccccc3)N1[C@@H]2c1ccc(OCCO)cc1
3. COCCCNC(=O)[C@]1(Cc2ccccc2N=[N+]=[N-])N=C(c2ccc(OCCCO)cc2)O[C@@H]1c1ccccc1N=[N+]=[N-]

1: 1.07; 2: 1.35; 3: 0.353

Please report composite z-score for every entry that follows.
1. C=CC[C@@]12N=C(c3ccc(OCCCO)cc3)O[C@@H]1c1ccccc1N(CCS(=O)(=O)c1ccccc1)C2=O
2. COC(=O)c1c(CC[C@@H](CO)NC(=O)N[C@H](Cn2cc(-c3ccccc3C)nn2)C(C)C)oc(C(C)=O)c1C(=O)OC
3. C=CC[C@]1(C(=O)N(C)C)N=C(c2ccc(OCCCO)cc2)O[C@H]1c1ccccc1N=[N+]=[N-]
4. COCCOC(=O)N1C(=O)[C@@]2(c3cc(C#CC4=CCCCC4)ccc31)[C@H](c1ccccc1OCCO)N1[C@H](c3ccccc3)[C@H](c3ccccc3)OC(=O)[C@H]1[C@@H]2C(=O)N1CCc2cc(OC)c(OC)cc2C1
5. C=CCN1C(=O)[C@]2(CC=C)N=C(c3ccc(OCCCO)cc3)O[C@@H]2c2ccccc21
6. CC(C)C(CO)N1C(=O)[C@]2(C)C3C(=O)OCCC/C=C\[C@H]3OC23C=CCN(c2ccc(Cl)cc2)C(=O)[C@@H]13 (stereo partly drawn)
7. O=C1O[C@@H](c2ccccc2)[C@@H](c2ccccc2)N2[C@@H](c3ccccc3OCCO)[C@]3(C(=O)Nc4ccc(C#CCCO)cc43)[C@@H](C(=O)N3CCN(c4ncccn4)CC3)[C@H]12

1: 1.28; 2: -0.79; 3: 0.346; 4: 1.18; 5: 0.777; 6: -0.028; 7: 0.649
